# maps each entry to its MFI at 33.3 nM
- TARGET DESC: T1, human PD-L1 (huPD-L1), full-length, stably expressed on CHO cells (human, UniProt Q9NZQ7 19-290)
- T1 construct: whole, on cells
- T1 sequence (Q9NZQ7 19-290): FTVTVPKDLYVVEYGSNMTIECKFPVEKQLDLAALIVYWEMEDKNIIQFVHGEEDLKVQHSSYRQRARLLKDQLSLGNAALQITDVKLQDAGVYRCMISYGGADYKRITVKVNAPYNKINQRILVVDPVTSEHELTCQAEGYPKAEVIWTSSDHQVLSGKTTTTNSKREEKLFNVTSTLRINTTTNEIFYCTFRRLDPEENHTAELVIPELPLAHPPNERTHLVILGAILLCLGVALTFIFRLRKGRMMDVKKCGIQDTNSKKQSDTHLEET
- ASSAY INFO: flow cytometry, CHO cells expressing huPD-L1
Give your result in MFI as a bare value.

Worked set:
binder="variant CD80 IgV-Fc E35D/M47V/N48K/V68M/A71G/L85M (Fc fusion, not shown: small tags and cut ends; a dimerising Fc or GST) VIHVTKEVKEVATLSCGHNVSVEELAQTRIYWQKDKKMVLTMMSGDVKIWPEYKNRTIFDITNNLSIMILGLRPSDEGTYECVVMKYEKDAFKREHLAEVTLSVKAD" measured_number=22800
binder="variant CD80 IgV-Fc E35D/M47V/N48K/V68M/L85M (Fc fusion, not shown: small tags and cut ends; a dimerising Fc or GST) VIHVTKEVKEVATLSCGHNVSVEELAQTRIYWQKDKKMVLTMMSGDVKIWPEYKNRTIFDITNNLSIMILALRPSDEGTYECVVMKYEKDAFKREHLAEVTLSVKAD" measured_number=7620
binder="variant CD80 IgV-Fc E35D/M43I/M47L/V68M (Fc fusion, not shown: small tags and cut ends; a dimerising Fc or GST) VIHVTKEVKEVATLSCGHNVSVEELAQTRIYWQKDKKMVLTMISGDLNIWPEYKNRTIFDITNNLSIMILALRPSDEGTYECVVLKYEKDAFKREHLAEVTLSVKAD" measured_number=16900
binder="variant CD80 IgV-Fc H18Y/E35D/V68M/T79M/L85M (Fc fusion, not shown: small tags and cut ends; a dimerising Fc or GST) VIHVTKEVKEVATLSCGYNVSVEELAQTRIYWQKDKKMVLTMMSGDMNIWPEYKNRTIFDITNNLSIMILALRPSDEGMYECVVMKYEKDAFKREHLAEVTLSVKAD" measured_number=14900
binder="variant CD80 IgV-Fc E35D/D46E/M47L/V68M/T79M/L85M/L97Q (Fc fusion, not shown: small tags and cut ends; a dimerising Fc or GST) VIHVTKEVKEVATLSCGHNVSVEELAQTRIYWQKDKKMVLTMMSGELNIWPEYKNRTIFDITNNLSIMILALRPSDEGMYECVVMKYEKDAFKREHQAEVTLSVKAD" measured_number=4620

stdin: Look up MFI at 33.3 nM: variant CD80 IgV-Fc E35D/T41S/D46E/M47I/V68M/K93R/E95V (Fc fusion, not shown: small tags and cut ends; a dimerising Fc or GST) VIHVTKEVKEVATLSCGHNVSVEELAQTRIYWQKDKKMVLSMMSGEINIWPEYKNRTIFDITNNLSIMILALRPSDEGTYECVVLKYEKDAFRRVHLAEVTLSVKAD
stdout: 14800

stdin: Proceed to variant CD80 IgV-Fc E35D/M47L/V68M/E95V/L97Q (Fc fusion, not shown: small tags and cut ends; a dimerising Fc or GST) VIHVTKEVKEVATLSCGHNVSVEELAQTRIYWQKDKKMVLTMMSGDLNIWPEYKNRTIFDITNNLSIMILALRPSDEGTYECVVLKYEKDAFKRVHQAEVTLSVKAD
stdout: 18600

stdin: Proceed to variant CD80 IgV-Fc Q33R/E35D/M38I/M47L/V68M (Fc fusion, not shown: small tags and cut ends; a dimerising Fc or GST) VIHVTKEVKEVATLSCGHNVSVEELAQTRIYWRKDKKIVLTMMSGDLNIWPEYKNRTIFDITNNLSIMILALRPSDEGTYECVVLKYEKDAFKREHLAEVTLSVKAD
stdout: 16500
